subjectOfTest: glucocorticoid receptor (GR) recombinant ligand binding domain (LBD) (Homo sapiens (Human))
measurementDescription: GR binding fluorescence polarisation (FP) assay
recordedConditions: displacement of fluorescently tagged ligand
measuredEndpoint: IC50

For record CCCn1cc(S(=O)(=O)N2CC[C@@H](c3cc4cnn(-c5ccc(F)cc5)c4cc3C)C[C@H]2C)cn1 [Example 12] the listed IC50 is 236 nM

Per the record, Cc1cc2c(cnn2-c2cnn(C3COC3)c2)cc1C1(Cc2ccccc2)CCN(S(=O)(=O)c2cnn(C)n2)C1 (stereo not drawn) [Example 264] has IC50 of 26 nM

get_value(item= Cc1cc2c(cnn2-c2ccc(F)cc2)cc1C1(COCc2ccccc2)CCN(S(=O)(=O)c2cnn(C)c2)C1 (stereo not drawn) [Example 341] , readout=IC50) returns 390 nM

Entry CCCn1cc(S(=O)(=O)N2CCC(C(=O)OCC)(c3ccc4c(cnn4-c4ccc(F)cc4)c3)CC2)cn1 [Example 21] ; IC50 = 884 nM

Quick note, IC50 for CCCn1cc(S(=O)(=O)N2C[C@H](C)N(c3ccc4c(cnn4-c4ccc(F)cc4)c3)C[C@@H]2C)cn1 [Example 61] landed at 25 nM

Data point: CCCn1cc(S(=O)(=O)N2CCC(c3ccc4c(cnn4-c4ccc(F)cc4)c3)CC2)cn1 [Example 135] ; IC50 = 473 nM

Looking up Cn1cc(S(=O)(=O)N2CCN(c3ccc4c(cnn4-c4ccc(F)cc4)c3)[C@H](Cc3ccccc3)C2)cn1 [Example 34] , I see its IC50 listed as 1100 nM

According to the records, this compound C[C@@H]1CN(S(C)(=O)=O)[C@@H](C)CN1c1ccc2c(cnn2-c2ccc(F)cc2)c1 [Example 51] displays IC50 of 360 nM

GET /value?item= Cc1cc2c(cnn2-c2cnn(C(F)(F)F)c2)cc1C1(Cc2ccccc2)CCN(S(=O)(=O)c2cnn(C)n2)C1 (stereo not drawn) [Example 254] &field=IC50 returns 87 nM

Entry CCCn1cc(S(=O)(=O)N(C)[C@H]2CCCN(c3cc4cnn(-c5ccc(F)cc5)c4cc3C)C2)cn1 [Example 125] , IC50 reported as 208 nM

For reference, reported IC50 for CCCn1cc(S(=O)(=O)N2CCN(c3cc4cnn(-c5ccc(F)cc5)c4cn3)CC23CC3)cn1 [Example 69] stands at 1160 nM

Briefly, IC50 measured for Cn1cc(S(=O)(=O)N2CCC(Cc3ccccc3)(c3cc4cnn(-c5ccc(F)cc5)c4cc3F)C2)cn1 (stereo not drawn) [Example 173] : 66 nM

Recorded result, COc1cc2c(cnn2-c2ccc(F)cc2)cc1N1CCN(S(C)(=O)=O)C2(CC2)C1 [Example 70] , IC50: 28 nM

Reported IC50 ( Cc1cc2c(cnn2-c2ccc(=O)n(C)c2)cc1C1(Cc2ccccc2)CCN(S(=O)(=O)c2ccc(Cl)cc2C#N)C1 (stereo not drawn) [Example 313] ) = 8.3 nM

The recorded IC50 for entry CCCn1cc(S(=O)(=O)N(C)C2CCN(c3cc4cnn(-c5ccc(F)cc5)c4cc3C)CC2)cn1 [Example 117] equals 57 nM

###

subjectOfTest: glucocorticoid receptor (GR) recombinant ligand binding domain (LBD) (Homo sapiens (Human), UniProt P04150)
Sequence (P04150 524-758): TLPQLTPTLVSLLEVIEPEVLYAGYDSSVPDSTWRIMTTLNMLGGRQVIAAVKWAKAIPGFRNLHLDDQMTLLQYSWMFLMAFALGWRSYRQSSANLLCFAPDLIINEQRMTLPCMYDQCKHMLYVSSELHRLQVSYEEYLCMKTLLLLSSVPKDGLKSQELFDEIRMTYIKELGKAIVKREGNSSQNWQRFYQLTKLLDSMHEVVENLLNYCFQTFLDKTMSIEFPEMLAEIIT
measurementDescription: GR binding fluorescence polarisation (FP) assay
recordedConditions: displacement of fluorescently tagged ligand
For each of the compounds below, state its pIC50.
By convention, pIC50 is the negative base-10 log of a molar concentration.

So for Cc1cc2c(cnn2-c2ccc(F)cc2)cc1C1(Cc2ccc(C(F)(F)F)nc2)CCN(S(=O)(=O)c2cnn(C)c2)C1 (stereo not shown) [Example 170] , the logged pIC50 turned out to be 6.91

// sample COc1cc2c(cnn2-c2ccc(=O)n(C)c2)cc1C1(Cc2ccccc2)CCN(S(=O)(=O)C2CC2)C1 (stereo not shown) [Example 321] , its pIC50 was 7.85

Lab book: pIC50 of Cc1cc2c(cnn2-c2ccc(=O)n(C)c2)cc1C1(Cc2ccccc2)CCN(C(=O)C2CC2)C1 (stereo not shown) [Example 332] noted as 7.70

The recorded pIC50 for CCCn1cc(S(=O)(=O)N2CCC(Cc3ccccc3)(c3cc4cnn(-c5ccc(F)cc5)c4cc3C)C2)cn1 (stereo not shown) [Example 147] is 7.38

Noted for C[C@@H]1CN(C(=O)c2ccccc2)CCN1c1ccc2c(cnn2-c2ccc(F)cc2)c1 [Example 2] : its pIC50 reads 5.71

Entry under test: CS(=O)(=O)N1CCC(Cc2ccccc2)(c2cc3cnn(-c4ccc(F)cc4)c3cc2Cl)C1 (stereo not shown) [Example 222] . Its pIC50 was 7.96

Query CCCn1cc(S(=O)(=O)N2CC=C(c3cc4cnn(-c5ccc(F)cc5)c4cc3Cl)CC2)cn1 [Example 143] yields pIC50 of 6.42
